These entries and their values trace back to PubChem BioAssay (NCI).

test: NCI Yeast Anticancer Drug Screen. Data for the sgs1 mgt1 strain (AID 161);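 also: 0% = growth of cultures given vehicle only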; details: S. cerevisiae sgs1 mgt1 strain, at 50.0 µM, hits give high values
This is part of a sample that, as a whole, favours compounds with a hit. Of some 79,000 tested, about 15% had one in any assay.
Measured Parameter: growth inhibition (%)
Answers are plain numbers, in %.

Cc1ccc(S(=O)(=O)N/N=C2/C(=N/NS(=O)(=O)c3ccc(C)cc3)c3cccc4cccc2c34)cc1 = 36.7
COc1ccc(NC(C)=O)c(C(O)CCNC(C)=O)c1 (stereo unspecified) = -25.9
COc1c(-c2ccc(F)cc2)oc2c(CC(=O)O)cccc2c1=O = -27.1
O=C1c2ccccc2C(=O)C1(O)c1c[nH]c2ccccc12 = 4.25
O=[N+]([O-])c1ccc(Oc2ccccc2-c2ccccc2)c([N+](=O)[O-])c1 = 11.6

Hi! Can you tell me growth inhibition for each of these molecules?
1. c1ccc(-n2nnnc2-c2nnnn2-c2ccccc2)cc1
2. O=[N+]([O-])c1ccc(Cl)c(/C=C/c2ncccn2)c1
3. Cc1cn(C2CC(O)C(COC(=O)C(C)(C)C)O2)c(=O)[nH]c1=O (stereo unspecified)
4. NC(=O)C(N)Cc1ccc(OCc2ccccc2)c(OCc2ccccc2)c1 (stereo unspecified)
5. COc1cc2c(cc1OC)C1=C(/C=C\C(C)=O)CCN1CC2

output:
1: -1.5; 2: 7.9; 3: 3.85; 4: 7.3; 5: -4.45

input: Quick one: growth inhibition of Cc1ccc(Nc2nnc(Nc3ccc(C)cn3)c3ccccc23)nc1 ?
output: -4.55

* * *

Experiment: NCI Yeast Anticancer Drug Screen. Data for the rad50 strain (AID 155);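 also: 0% = growth of vehicle-only cultures of the same strain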
Settings: S. cerevisiae rad50 strain growth inhibition; at 50.0 µM; hits give high values
Description: Growth inhibition of yeast strains with defined genetic alterations is measured as a screen for potential anti-cancer activity. Selected strains with alterations in DNA damage repair or cell cycle control were exposed to compounds and growth inhibition was measured relative to vehicle treated controls. The strain used in this assay is rad50
About 79,000 compounds went through this panel and 15% of them were active in at least one assay; those are over-represented in the sample as a whole.
Consider the following compounds; for each one, report its growth inhibition.
Give bare numbers, in %.

C(=NCCSSCCN=Cc1ccccc1)c1ccccc1 = 12.1
CCCCCCc1cn([C@H]2C[C@H](O)[C@@H](CO)O2)c(=O)[nH]c1=O = -5.6
COc1ccc(C2(C3NCCC4=C3CCCC4)CC2)cc1 (centres undefined) = 11.9

Hi! Can you tell me growth inhibition for each of these compounds?
1. CC(c1ccccc1)C(O)S(=O)(=O)O (centres undefined)
2. COc1cc([N+](=O)[O-])ccc1C(=O)NC(CCC(=O)O)C(=O)O (centres undefined)

output:
1: 6.95; 2: -12.6

Hi! Can you tell me growth inhibition for each of these compounds?
1. CCOC(=O)C[n+]1cccc(Br)c1
2. Nc1c(-c2nc3ccccc3s2)[n+]([O-])c2ccccc2[n+]1[O-]
3. COC1(OC)c2no[n+]([O-])c2CCC1O (centres undefined)
4. O=C(Nc1ccccc1)Sc1nc2ccccc2s1
5. CCCC1OCCO1
6. FC(F)(F)c1nnc(-c2ccccc2)nn1

output:
[-2.6, 7.45, -6.6, 24.5, -15.3, -8.8]

Hi! Can you tell me growth inhibition for each of these compounds?
1. CCCOc1cc2c(cc1C(C)(C)c1ccccc1)OCO2
2. Cn1c(Nc2ccccc2)c([N+](=O)[O-])c(=O)n(C)c1=O
3. N#CCCN(CCC#N)c1ccc(/C=C2\N=C(CN3C(=O)c4ccccc4C3=O)OC2=O)cc1
4. CCOC(=O)c1c[nH]c2ccccc2c1=O
5. CN1CCc2cc3c(cc2C(=O)Cc2ccc4c(c2C1)OCO4)OCO3
6. CC(=O)Oc1ccc(C2c3cc(OC(C)=O)c(OC(C)=O)cc3CC3C(=O)OCC32)cc1OC(C)=O (centres undefined)

output:
[-16.9, -11.8, -20.1, 1.65, -14.7, 2.45]

* * *

Consider the following compounds; for each one, report its growth inhibition.
experiment: NCI Yeast Anticancer Drug Screen. Data for the rad50 strain (AID 155);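 also: 0% = growth of vehicle-only cultures of the same strain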; details: S. cerevisiae rad50 strain growth inhibition; at 50.0 µM; hits give high values
About 79,000 compounds went through this panel and 15% of them were active in at least one assay; those are over-represented in the sample as a whole. Active and inactive are the calls of the source. Cut-off read from the data, not from the text of the source: active = growth inhibition above about 70%; inactive = the rest.

CCOC(=O)c1c(Nc2ccc(OC)cc2)n[nH]c1C = -7.85% (inactive)
C=C1C(C)C2C(Cc3ccccc3)NC(=O)C23OC(=O)/C=C\CC(=O)CCC(C)C/C=C/C3C1O (configuration not stated) = 91.4% (active)

Hi! Can you tell me growth inhibition for each of these compounds?
1. Cn1c(=O)c(Br)c(C=O)n(CCO[N+](=O)[O-])c1=O
2. Nc1nc(=O)[nH]c2n[nH]nc12
3. COc1ccc(C(=O)C(CN(C)C)CN(C)C)cc1OC
4. CC(=S)NNC(=O)c1ccncc1
5. O=C(O)Cn1c(=O)ccc2ccccc21
6. C/C=C(/C)c1cccc(OCc2ccccc2)c1OCc1ccccc1
7. COC(=O)Cc1c(C(=O)OC)c(O)cc(O)c1C(=O)OC
8. CSc1nccc(=O)n1C

output:
1. -8.25% (inactive)
2. -18.2% (inactive)
3. 30.6% (inactive)
4. -14.1% (inactive)
5. 4.4% (inactive)
6. -19.1% (inactive)
7. 5.85% (inactive)
8. 9.6% (inactive)

Hi! Can you tell me growth inhibition for each of these compounds?
1. COC(=O)C1CCC2C3CCCCC3CCC2C1(C)C(=O)OC (configuration not stated)
2. Cc1ccc(S(=O)(=O)C(=S)N(C)N(C)C)cc1

output:
-7.6% (inactive)
18.2% (inactive)

* * *

Consider the following molecules; for each one, report its growth inhibition.
assay: NCI Yeast Anticancer Drug Screen. Data for the rad50 strain (AID 155);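 also: 0% = growth of vehicle-only cultures of the same strain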; conditions: S. cerevisiae rad50 strain growth inhibition; at 50.0 µM; hits give high values
This is part of a sample that, as a whole, favours compounds with a hit. Of some 79,000 tested, about 15% had one in any assay.
One number for each entry, in %.

Cc1c(F)c(N)c2c(=O)cc(-c3ccc(N)c(F)c3)oc2c1F = 32.8
Cc1ccc2c(c1)CCC(=O)O2 = 11.4
Clc1ccccc1C=Nc1ccccc1 = 31.2
C1OC2OC3OCOC3C2O1 (stereo not drawn) = 16.4
CC1(CC2(c3ccccc3)NC(=O)NC2=O)NC(=O)NC1=O (stereo not drawn) = -0.55

Hi! Can you tell me growth inhibition for each of these molecules?
1. CC(=O)C1=C(C)C2CC3(C)CC(C2(C)C1)C3(C)C (stereo not drawn)
2. CC1OCC2CC3(O1)OC3C(COCC1OC3COC(C)OC4(C3)OC14)O2 (stereo not drawn)
3. CCCCCCCCC1C(CCCCCCCC(=O)OC)C2(Cl)C(Cl)=C(Cl)C1(Cl)C2(Cl)Cl (stereo not drawn)
4. CC(C)=C1C(=O)C[C@]2(C)C[C@H]3/C(=C(/C)CCC12)CC[C@@]3(C)O (stereo partly drawn)

output:
8.45
-7.05
25.6
46.5

* * *

assay: NCI Yeast Anticancer Drug Screen. Data for the sgs1 mgt1 strain (AID 161);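 also: 0% = growth of cultures given vehicle only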; details: S. cerevisiae sgs1 mgt1 strain, at 50.0 µM, hits give high values
Compounds without any hit were thinned out: in the full panel of roughly 79,000, 15% have a hit. Where a SMILES comes first, the peptide text is derived from it.
Measured Parameter: growth inhibition (%)
Give bare numbers, in %.

CC(=O)NC(CO)C(=O)NC(Cc1ccc(O)cc1)C(=O)NCC(N)=O (stereo not drawn) (Ac-Ser-Tyr-Gly-NH2; configuration not given here) = -9.4
N#CNC(=O)c1ccc(Cl)cc1 = -11.1
O=NC1CC=CC1Cl (stereo not given) = 0.65
O=C1c2ccccc2C(=O)N1Nc1ccccc1 = 7.45
CC(SC(C)c1ccccc1)c1ccccc1 (stereo not given) = -8.65

Hi! Can you tell me growth inhibition for each of these molecules?
1. CCN(c1ccccc1)c1ncnc2nc[nH]c12
2. O=C1CCC(C(=O)O)N1 (stereo not given)
3. OCC[N+]12CCCN1CCC2
4. CCCC(=O)Oc1c(Cl)cc(Cl)cc1-c1ccccc1

output:
1: -1.75; 2: -20.9; 3: -21.4; 4: 37.9

Hi! Can you tell me growth inhibition for each of these molecules?
1. Cn1c(=O)c2[nH]c(SCc3ccccn3)nc2n(C)c1=S
2. NC(=S)N/N=C/c1ccc(OC(=O)Cc2ccccc2)cn1
3. COc1cc(C2c3cc4c(cc3OC(N3CCCCC3)C2C)OCO4)cc(OC)c1OC (stereo not given)
4. COc1ccc(COC(=O)NC2CCCCC2)cc1OC

output:
-20.9
10.1
-18.1
25.1

Hi! Can you tell me growth inhibition for each of these molecules?
1. CN(C(=O)c1ccc(Cl)cc1)C(=S)N1CCN(c2ccccn2)CC1
2. Cc1[nH]nc(C(=O)O)c1N
3. CC1C(c2ccccc2)(N(C)C)CS1(=O)=O (stereo not given)
4. COc1cc(NS(=O)(=O)c2ccccc2)c2nc3ccc(Cl)cc3nc2c1
5. CC(C)C1=CC2=CCC3C(C)(COC(=O)CSC(C)(C)C)CCCC3(C)C2CC1 (stereo not given)
6. CCCOc1ccc(OCC(=O)c2ccccc2)cc1

output:
[-36.6, -14.6, -6.4, -25.1, 31.6, 25.8]

Hi! Can you tell me growth inhibition for each of these molecules?
1. O=C(Oc1ccc2c(c1)CCN2C(=O)c1cc2c(cc1[N+](=O)[O-])OCO2)c1ccc2c(c1)OCO2
2. c1ccc(-c2nc(-c3ccccc3SSc3ccccc3-c3nc(-c4ccccc4)nn3-c3ccccc3)n(-c3ccccc3)n2)cc1

output:
[-2.3, 0.8]
